# methodDescription: qHTS profiling of the MIPE4 collection as inhibitors of Plasmodium falciparum (DD2) proliferation (Rep 2) (AID 743346)
# measurementContext: P. falciparum Dd2 in erythrocytes, SYBR Green DNA, 72 h; at 28.5 µM unless noted
# Protocol: Plasmodium falciparum is a virulent malarial parasite that kills 1-2 million people worldwide each year. […] Because mature erythrocytes lack DNA, only Plasmodium-derived DNA is detected. The SYBR Green viability assay was adapted from a method described previously (Plouffe et al., 2008). […] The following morning, fluorescence intensity at 485(14) nm excitation and 535(25) nm emission wavelengths was measured on an EnVision (Perkin Elmer) plate reader. […]
parasite growth, % of control (lower = inhibition) for assorted compounds
experimentalEndpoint: parasite growth, % of control (lower = inhibition) (%)

# structureSmiles, measurementUnits, reportedResult
data = [
    ("C[C@@H]1CN(CC(=O)Nc2ccc3c(c2)Cc2cccc(-c4cc(=O)cc(N5CCOCC5)o4)c2S3)C[C@H](C)O1", "%", 9.57),
    ("CNC(=O)CN1CCC(Oc2cc3c(Nc4cccc(Cl)c4F)ncnc3cc2OC)CC1", "%", 16),
    ("COc1cc2c(Oc3ccc4[nH]c(C)cc4c3F)ncnc2cc1OCCCN1CCCC1", "%", 15.9),
    ("CN1CCN(Cc2ccc(NC(=O)Nc3ccc(Oc4cc(NC(=O)C5CC5)ncn4)cc3)cc2C(F)(F)F)CC1", "%", 14.2),
    ("CC(C)Nc1cc(C(F)(F)F)cc2nc(NC(=O)c3cccnc3)nn12", "%", 92.3),
    ("COc1ccc(F)c(F)c1C(=O)c1cnc(NC2CCN(S(C)(=O)=O)CC2)nc1N", "%", 26),
    ("CN(C)CC=CC(=O)Nc1cc2c(Nc3ccc(F)c(Cl)c3)ncnc2cc1O[C@H]1CCOC1", "%", 9.26),
    ("CCn1nnc2c(N3CCOCC3)nc(-c3ccc(NC(=O)Nc4ccc(C(=O)N5CCN(C)CC5)cc4)cc3)nc21", "%", 13.6),
    ("CC(=O)Nc1nc(C)c(-c2ccc(Cl)c(S(=O)(=O)NCCO)c2)s1", "%", 10),
]
